# PROCEDURE TEXT: Ratio IC50 for compound to mithramycin IC50 for mouse 3T3 cells
# Type: cell-based
# CONDITION DETAILS: NIH3T3 cells, read-out: Ratio IC50

{"columns": ["MOLECULE", "selectivity ratio"],
 "data": [
  ["CO[C@H](C(=O)[C@@H](O)[C@@H](C)O)[C@@H]1Cc2cc3cc(O[C@H]4C[C@@H](O[C@H]5C[C@@H](O)[C@H](O)[C@@H](C)O5)[C@H](O)[C@@H](C)O4)c(C)c(O)c3c(O)c2C(=O)[C@H]1O[C@H]1C[C@@H](O[C@H]2C[C@@H](O[C@H]3C[C@](C)(O)[C@H](O)[C@@H](C)O3)[C@@H](O)[C@@H](C)O2)[C@H](O)[C@@H](C)O1 [PLICAMYCIN]", 1500]
]}

---

# PROCEDURE TEXT: Cytotoxicity against human HCC44 cells after 96 hrs by Cell Titer Glo assay
# Type: functional, cell-based
# CONDITION DETAILS: HCC44, 96 h
pIC50: −log10 of the molar value.

{"columns": ["COMPOUND", "RELATIONAL OPERATOR", "pIC50"],
 "data": [
  ["CO[C@H]1[C@H](O)C[C@@H](O[C@@H]2C[C@H](Oc3cc4cc5c(c(O)c4c(O)c3C)C(=O)[C@@H](O[C@H]3C[C@H](O[C@H]4C[C@H](O[C@H]6C[C@@](C)(O)[C@@H](O)[C@H](C)O6)[C@H](O)[C@@H](C)O4)[C@H](O)[C@@H](C)O3)[C@H]([C@H](OC)C(=O)O)C5)O[C@H](C)[C@H]2OC(C)=O)O[C@@H]1C [CHROMOMYCIN SA3]", "<", 4.48],
  ["CO[C@H]1[C@H](O)C[C@@H](O[C@@H]2C[C@H](Oc3cc4cc5c(c(O)c4c(O)c3C)C(=O)[C@@H](O[C@H]3C[C@H](O[C@H]4C[C@H](O[C@H]6C[C@@](C)(O)[C@@H](OC(C)=O)[C@H](C)O6)[C@H](O)[C@@H](C)O4)[C@H](O)[C@@H](C)O3)[C@H]([C@H](OC)C(=O)O)C5)O[C@H](C)[C@H]2OC(C)=O)O[C@@H]1C [CHROMOMYCIN SA]", "=", 6.68],
  ["CO[C@@H]1[C@H](O)C[C@@H](O[C@@H]2C[C@H](Oc3cc4cc5c(c(O)c4c(O)c3C)C(=O)[C@@H](O[C@H]3C[C@@H](O[C@H]4C[C@@H](O[C@H]6C[C@](C)(O)[C@@H](OC(C)=O)[C@H](C)O6)[C@H](O)[C@@H](C)O4)[C@H](O)[C@@H](C)O3)[C@H]([C@H](OC)C(=O)[C@@H](O)[C@@H](C)O)C5)O[C@H](C)[C@@H]2OC(C)=O)O[C@@H]1C [CHROMOMYCIN A3]", "=", 9.00],
  ["COC(=O)[C@@H](OC)[C@@H]1Cc2cc3cc(O[C@H]4C[C@@H](O[C@@H]5C[C@@H](O)[C@H](OC)[C@@H](C)O5)[C@H](OC(C)=O)[C@@H](C)O4)c(C)c(O)c3c(O)c2C(=O)[C@H]1O[C@H]1C[C@H](O[C@H]2C[C@H](O[C@H]3C[C@@](C)(O)[C@@H](OC(=O)C(C)C)[C@H](C)O3)[C@H](O)[C@@H](C)O2)[C@H](O)[C@@H](C)O1", "=", 7.25],
  ["CO[C@H]1[C@H](O)C[C@@H](O[C@@H]2C[C@H](Oc3cc4cc5c(c(O)c4c(O)c3C)C(=O)[C@@H](O[C@H]3C[C@H](O[C@H]4C[C@H](O[C@H]6C[C@@](C)(O)[C@@H](OC(=O)C(C)C)[C@H](C)O6)[C@H](O)[C@@H](C)O4)[C@H](O)[C@@H](C)O3)[C@H]([C@H](OC)C(=O)[C@@H](O)[C@@H](C)O)C5)O[C@H](C)[C@H]2OC(C)=O)O[C@@H]1C [CHROMOMYCIN A2]", "=", 9.59],
  ["CO[C@H]1[C@H](O)C[C@@H](O[C@@H]2C[C@H](Oc3cc4cc5c(c(O)c4c(O)c3C)C(=O)[C@@H](O[C@H]3C[C@H](O[C@H]4C[C@H](O[C@H]6C[C@@](C)(O)[C@@H](O)[C@H](C)O6)[C@H](O)[C@@H](C)O4)[C@H](O)[C@@H](C)O3)[C@H]([C@H](OC)C(=O)[C@@H](O)[C@@H](C)O)C5)O[C@H](C)[C@H]2OC(C)=O)O[C@@H]1C [DEACETYL CHROMOMYCIN A3]", "=", 6.17],
  ["CO[C@H]1[C@H](O)C[C@@H](O[C@@H]2C[C@H](Oc3cc4cc5c(c(O)c4c(O)c3C)C(=O)[C@@H](O[C@H]3C[C@H](O[C@H]4C[C@H](O[C@H]6C[C@@](C)(O)[C@@H](OC(=O)C(C)C)[C@H](C)O6)[C@H](O)[C@@H](C)O4)[C@H](O)[C@@H](C)O3)[C@H]([C@H](OC)C(=O)O)C5)O[C@H](C)[C@H]2OC(C)=O)O[C@@H]1C [CHROMOMYCIN SA2]", "=", 6.11],
  ["COC(=O)[C@@H](OC)[C@@H]1Cc2cc3cc(O[C@H]4C[C@@H](O[C@@H]5C[C@@H](O)[C@H](OC)[C@@H](C)O5)[C@H](OC(C)=O)[C@@H](C)O4)c(C)c(O)c3c(O)c2C(=O)[C@H]1O[C@H]1C[C@H](O[C@H]2C[C@H](O[C@H]3C[C@@](C)(O)[C@@H](O)[C@H](C)O3)[C@H](O)[C@@H](C)O2)[C@H](O)[C@@H](C)O1", "=", 5.47],
  ["CO[C@H]1[C@H](O)C[C@@H](O[C@@H]2C[C@H](Oc3cc4cc5c(c(O)c4c(O)c3C)C(=O)[C@@H](O[C@H]3C[C@H](O[C@H]4C[C@H](O[C@H]6C[C@@](C)(O)[C@@H](O)[C@H](C)O6)[C@H](O)[C@@H](C)O4)[C@H](O)[C@@H](C)O3)[C@H]([C@H](OC)C(=O)[C@@H](O)[C@@H](C)O)C5)O[C@H](C)[C@H]2O)O[C@@H]1C", "<", 4.30]
]}
